Target: CDK2-NanoLuc fusion with CCNE1 in 293T or 293 cells (Homo sapiens, UniProt P24941)
Construct: host or cells: 293T (ATCC CRL-3216) or 293 (ATCC CRL-1573)
Test: NanoBRET Target Engagement (TE) Intracellular Kinase Assay, CDK2/CCNE1
Format: cell-based
Conditions: NanoBRET TE intracellular kinase assay, 2-hour incubation, read-out: NanoBRET-CDK2/E1 IC50
Kindly supply the reported pIC50 values for the records listed here.
Please report pIC50 as the negative decimal logarithm of the molar concentration, giving only the number.

QUERY: Kindly state the measured pIC50 obtained for COc1cc(O)c(C=O)c(OCC(=O)Nc2cc([C@H]3CC[C@@H](OC(=O)N[C@@H](C)CC#N)C3)[nH]n2)c1 with CDK2-NanoLuc fusion with CCNE1 in 293T or 293 cells (Homo sapiens, UniProt P24941).
RESULT: 7.99

QUERY: # returns recorded pIC50 (system: CDK2-NanoLuc fusion with CCNE1 in 293T or 293 cells (Homo sapiens, UniProt P24941)) for Cc1sc(-c2cccc(O)c2C=O)nc1C(=O)Nc1cc([C@H]2CC[C@@H](OC(=O)NC(C)C)C2)[nH]n1
RESULT: 8.07

QUERY: Identify the measured pIC50 of COc1cc(O)c(C=O)c(OCC(=O)Nc2cc([C@H]3CC[C@@H](OC(=O)NC4(CF)CC4)C3)[nH]n2)c1 for CDK2-NanoLuc fusion with CCNE1 in 293T or 293 cells (Homo sapiens, UniProt P24941).
RESULT: 8.65

QUERY: // lookup pIC50 | system=CDK2-NanoLuc fusion with CCNE1 in 293T or 293 cells (Homo sapiens, UniProt P24941) | key= COc1cc(O)c(C=O)c(OCC(=O)Nc2cc([C@H]3CC[C@@H](OC(=O)N4C5CCCC4C5)C3)[nH]n2)c1
RESULT: 8.54
